# experimental-system: T1, HSP70 (human HSP70; the antigen of the binning, humanization and variant binding assays) (human, UniProt P0DMV8 1-641, limits assumed)
# T1 construct: also called hu HSP70
# T1 sequence (P0DMV8 whole entry, change not shown): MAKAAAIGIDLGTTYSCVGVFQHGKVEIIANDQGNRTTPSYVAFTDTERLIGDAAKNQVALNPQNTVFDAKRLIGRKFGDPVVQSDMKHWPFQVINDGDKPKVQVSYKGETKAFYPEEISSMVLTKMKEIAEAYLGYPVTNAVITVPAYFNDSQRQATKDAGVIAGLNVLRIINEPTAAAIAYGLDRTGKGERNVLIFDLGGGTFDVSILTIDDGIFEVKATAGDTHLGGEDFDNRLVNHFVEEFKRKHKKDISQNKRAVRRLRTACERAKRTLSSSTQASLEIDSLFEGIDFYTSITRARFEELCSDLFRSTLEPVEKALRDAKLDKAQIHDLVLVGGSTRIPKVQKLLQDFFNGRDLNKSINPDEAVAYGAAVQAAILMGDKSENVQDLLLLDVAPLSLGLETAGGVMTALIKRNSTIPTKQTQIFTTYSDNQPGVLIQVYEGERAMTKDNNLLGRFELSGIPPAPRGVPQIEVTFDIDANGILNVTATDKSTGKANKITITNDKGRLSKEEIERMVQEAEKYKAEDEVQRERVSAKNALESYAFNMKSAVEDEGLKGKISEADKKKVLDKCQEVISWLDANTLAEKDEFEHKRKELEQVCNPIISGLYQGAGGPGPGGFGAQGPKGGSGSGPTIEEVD
# measurement-notes: BLI, anti-human Fc capture, antigen dilution series, 1:1 fit
Would you mind telling me the reported kon of each entry?
State just the number; it will be interpreted in M⁻¹ s⁻¹.

Request: Bench note: what kon did h77A-1.75 (antibody, V domains shown, captured by anti-human Fc) VH: QIQLVQSGVEVKKPGASVKVSCKASGYTFTNYGMNWVRQAPGQGLEWMGWINTYTGEPTYSDDFKGRFTFTTDTSTSTAYMEVRSLRSDDTAVYFCARYDHAMDYWGQGTLVTVSS VL: EIVLTQSPDSLAVSLGERATINCKSSQSLFNSGTRKNYLAWYQQKAGQSPKLLIYWTSTRESGVPDRFSGSGSGTDFTLSIDSLQAEDVAVYYCKQSYTLYTFGGGTKVEIK show?
Result: 88100

Request: Bench note: what kon did h77A-1.61 (antibody, V domains shown, captured by anti-human Fc) VH: QIQLVQSGAEVKKPGASVKVSCKASGYTFTNYGMNWVRQAPGQGLEWMGWINTYTGEPTYADDFKGRFTFTTDTSTSTAYMELRSLRSDDTAVYFCARYDHAMDYWGQGSLVTVSS VL: EIVLTQSPDSLAVSLGERATINCKSSQSLLNSGTRKNYLAWYQKKSGQSPKLLIYWTSTRESGVPDRFSGSGSGTDFTLSIDSLQAEDVAVYYCKQSYTLYTFGGGTKVEIK show?
Result: 42100

Request: Bench note: what kon did h77A-1.19 (antibody, V domains shown, captured by anti-human Fc) VH: QIQLVQSGAEVKKPGASVKVSCKASGYTFTNYGMNWVRQAPGQGLEWMGWINTYTGEPTYVDDFKGRFTFTTDTSTSTAYMDLRSLRSDDTAVYFCARYDHAMDYWGQGTLVTVSS VL: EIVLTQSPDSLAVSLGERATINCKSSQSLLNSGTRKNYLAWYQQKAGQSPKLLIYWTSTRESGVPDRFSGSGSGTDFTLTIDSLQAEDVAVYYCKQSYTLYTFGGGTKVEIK show?
Result: 88500
